Entry source: PubChem BioAssay (NCI)

# Test system: SK-OV-3 ovarian
# method: NCI tumour cell line growth inhibition, 48 h
readoutKind: TGI

molecule	reportedResult
O=C(O)C1CCCCC1c1c2ccc(=O)c(O)c-2oc2c(O)c(O)ccc12 (stereo unspecified)	> 100 µM
Cn1nc(-c2ccc(Cl)cc2)nc2c(=O)n(C)c(=O)nc1-2	17.7 µM
NC1=NC(c2ccc(Cl)cc2)N(c2ccc(S(N)(=O)=O)cc2)C(N)=N1 (stereo unspecified)	> 100 µM
CC(C)N1CCN(Cc2ccc3c(NNC(=O)c4ccccc4)nc4cc(F)ccc4n23)CC1	15.3 µM
Cc1cc(Nc2nc(-c3cccnc3)nc3ccccc23)n[nH]1	> 100 µM

Let's switch to this molecule now.
**Query** What measured TGI is associated with `O=C(c1ccccc1)n1cc(-c2ccccc2)c2c(=O)[nH]cnc21` on SK-OV-3 ovarian?
**Result** > 100 µM

----------
# Tested on: PC-3 prostate
# method: NCI tumour cell line growth inhibition, 48 h
Items are presented alongside their recorded TGI.

Field: example entries. Status: answers known.
compound	TGI
COc1cc(C2c3cc4c(cc3OC(Nc3ccccc3)C2C)OCO4)cc(OC)c1O (centres undefined)	13.4 µM
COC1CC(OC2C(C)OC(OC3C(C)OC(OC4C(O)CC(O[C@H]5CC[C@@]6(C)C(=CC[C@]7(O)[C@@H]6C[C@@H](OC(C)=O)[C@@]6(C)[C@]7(O)CC[C@@]6(O)C(C)=O)C5)OC4C)CC3OC)CC2OC)OC(C)C1O (some centres undefined)	> 12.5 µM
COC(=O)C1OC2(CCCC3CC32)O[C@H]1C(=O)OC (some centres undefined)	> 100 µM

**Query** Quick one: TGI of CC(C)CCCC(C)[C@H]1CC[C@H]2[C@@H]3CC[C@H]4C[C@@H](CCC=C(c5cc(Cl)c(O)c(C(=O)OC(C)C)c5)c5cc(Cl)c(O)c(C(=O)OC(C)C)c5)CC[C@]4(C)[C@H]3CC[C@]12C (some centres undefined) ?
**Result** > 50 µM

----------
# Test system: ACHN renal
# method: NCI tumour cell line growth inhibition, 48 h
List of TGI values.

Recorded TGI, per entry:
compound	TGI
N[C@@H]1C(=O)N2C(C(=O)OC(c3ccccc3)c3ccccc3)=C(CCl)CS[C@H]12	> 100 µM
CC(=O)c1c(CN(C)c2ccccc2)n([O-])c2ccccc2[n+]1=O	> 100 µM
Cc1nc2c(o1)C(=Nc1ccccc1)c1ccccc1C2=O	19.6 µM
CCCCCCNC(=O)CCC(NC(=O)c1ccc(N(C)Cc2cnc3nc(N)nc(N)c3n2)cc1)C(=O)NCCCCCC (stereo unspecified)	> 100 µM
COc1ccc(-c2ccc(-c3ccc(C(=N)N)nc3)s2)cc1Cl	3.15 µM

**Query** Endpoint output: TGI of `C[n+]1c(-c2ccc(/C=N/Nc3ccnc(N/N=C/c4ccc(-c5cn6ccsc6[n+]5C)cc4)n3)cc2)cn2ccsc21` . Value?
**Result** 78.6 µM

**Query** Param item: `O=c1[nH]c2ccccc2c(O)c1/C=N/C(=S)NCc1ccccc1`
**Result** > 100 µM

**Query** `O=[N+]([O-])c1ccc(N/N=C/CC(O)(C(F)(F)F)C(F)(F)F)c([N+](=O)[O-])c1` , same question.
**Result** > 10 µM

**Query** Next: `COc1ccc2c(C3(c4cn(C)c5cc(OC)ccc45)C(=O)Nc4ccc(Cl)cc43)cn(C)c2c1`
**Result** > 100 µM

**Query** Also COC1CC(OC2C(C)OC(OC3C(C)OC(OC4C(O)CC(O[C@H]5CC[C@@]6(C)C(=CC[C@]7(O)[C@@H]6C[C@@H](OC(C)=O)[C@@]6(C)[C@]7(O)CC[C@@]6(O)C(C)=O)C5)OC4C)CC3OC)CC2OC)OC(C)C1O (stereo partly specified) , if possible.
**Result** > 12.5 µM

**Query** CC(=O)OCC1OC(OCCCCCCO)C(OC(C)=O)C(OC(C)=O)C1OC(C)=O (stereo unspecified) ?
**Result** > 100 µM
